Cited source: PubChem BioAssay

# assay comment: probe aInhba binding on compound microarray – biochemical, small-molecule microarray, 635/667 nm fluorescence, primary screen (AID 1148);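 also: score merges 667nm spot fluorescence with signal-to-noise for antibody binding to printed compounds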
# setup conditions: higher = more signal
Please use label 1 whenever composite z-score is not below 0.1, and label 0 whenever it is.

{"columns": ["compound", "label value"],
 "data": [
  ["C=C(COC)/C(=C/C[C@H](OC(=O)c1ccncc1)c1ccccc1OCCO)c1cc(C(=O)OC)ccc1OC", "label 0"],
  ["CC(C)[Si](C#C[Si](C(C)C)(C(C)C)C(C)C)(O[C@H](c1ccccc1)c1cn(Cc2ccccc2)nn1)C(C)C", "label 0"],
  ["OCCCC1=CC(c2ccc(CN3CCCC3)cc2)N(Cc2cc3c(cc2Br)OCO3)CC1 (centres undefined)", "label 0"]
]}

Task: Is the recorded value of composite z-score equal to or greater than 0.1 for this compound? "COCCOC(=O)N1C(=O)[C@@]2(c3cc(C#CCCO)ccc31)[C@H](C(=O)Nc1nc3ccccc3s1)[C@H]1C(=O)O[C@H](c3ccccc3)[C@H](c3ccccc3)N1[C@@H]2c1ccc(O)cc1"
Result: label 1

Task: Record Cc1ccccc1C(O)C1C=CC2C(=O)NC(=O)C2N1Nc1ccccn1 (centres undefined) ; criterion: composite z-score no lower than 0.1. Met?
Result: label 0

Task: Reported composite z-score reaches at least 0.1 for "CCCC=C(CCC)[C@@H](NS(=O)(=O)c1ccc(C(F)(F)F)cc1)c1ccccc1" ?
Result: label 1

Task: Is the recorded value of composite z-score equal to or greater than 0.1 for this compound? "COCCOC(=O)N1C(=O)[C@@]2(c3cc(C#CC4=CCCCC4)ccc31)[C@H](C(=O)Nc1nc3ccccc3s1)[C@H]1C(=O)O[C@H](c3ccccc3)[C@H](c3ccccc3)N1[C@@H]2c1ccc(O)cc1"
Result: label 0

Task: Tell me whether composite z-score is at least 0.1 here: "COCC(=C=CC[C@H](O)c1ccc(CO)o1)CCO"
Result: label 0

Task: Hi team, for CCCCCN1CC=CC23O[C@@H]4C=CCCOC(=O)C4[C@H]2C(=O)N(CCCCCCO)[C@@H]3C1=O (some centres undefined) , is the recorded composite z-score at or above 0.1?
Result: label 0

Task: Dear colleague, could you confirm whether "CCOC(=O)C1=CC[C@@H](c2ccccc2F)N(S(=O)(=O)c2ccc(C)cc2)[C@H]1c1ccccc1" has composite z-score at or above 0.1?
Result: label 0

Task: Is reported composite z-score greater than or equal to 0.1 here: "CC(C)C[C@@H]1NC(=O)[C@@H]2C[C@H](C(=O)NCCCCCCN)[C@H](c3cccc(OCCO)c3)N2C1=O"
Result: label 1

Task: In plain terms: is recorded composite z-score at least 0.1 for "CCOC(=O)C[C@H]1[C@H](OC(=O)c2cc3ccccc3oc2=O)[C@@H](NC(=O)CC(C)C)c2cc(OCCCO)ccc2N1C(=O)c1ccc2ccccc2n1" ?
Result: label 0

Task: Is reported composite z-score greater than or equal to 0.1 here: CS(=O)(=O)CCOC(=O)C1=CC(CCCO)=CC(c2ccc(CN3CCCC3)cc2)N(Cc2sc3ccccc3c2Cl)C=C1C(=O)OCCS(C)(=O)=O (centres undefined)
Result: label 1

Task: Dear colleague, could you confirm whether N#Cc1ccc(NN2C(C(O)c3ccc(Br)cc3)C=CC3C(=O)N(c4ccccc4)C(=O)C32)cc1 (centres undefined) has composite z-score at or above 0.1?
Result: label 1

Task: Given "Cc1ccc(N2C(=O)c3ccccc3[C@@H](C(=O)NCCCN(C)C)[C@@H]2c2ccc(CO)cc2)nc1" , state whether its composite z-score is at least 0.1.
Result: label 0

Task: hey, is composite z-score for this one >= 0.1? COC(=O)C1=CC(CCCO)=CC(c2cccs2)N(Cc2cccc(OC(F)(F)F)c2)C=C1C(=O)OC (centres undefined)
Result: label 0

Task: Entry "CN(C)C(=O)[C@]1(CCC(=O)OC(C)(C)C)N=C(c2ccc(OCCCO)cc2)O[C@@H]1c1ccccc1CN=[N+]=[N-]" : is its composite z-score no less than 0.1?
Result: label 0

Task: Determine whether this compound has composite z-score no lower than 0.1: CCCC1(C(=O)OC)C=C2C(=C(C)C(=O)C2C)CN1 (centres undefined)
Result: label 0
